system: IL-1β production in PMA-differentiated THP-1 cells; assay: IL-1β production in PMA-differentiated THP-1 cells stimulated with gramicidin (hTHP-1 assay, 2% fetal bovine serum; Procedures 1-3); format: cell-based, human; settings: hTHP-1 assay containing 2% fetal bovine serum, Table B2, class symbols; read-out: IC50
Metric Name: IC50

Molecule	IC50
CC(C)(O)c1ncc(S(N)(=O)=NC(=O)Nc2c3c(c(Cl)c4c2CCC4)CCC3)s1 (single isomer, unassigned) [Example 596]	1 to 5 µM
Cc1c(C2CC2)cc2c(c1NC(=O)N=S(N)(=O)c1sc(C(C)(C)O)cc1F)CCC2 (single isomer, unassigned) [Example 686]	1 to 5 µM
CC(C)(O)c1cc(S(N)(=O)=NC(=O)Nc2c3c(c(C#N)c4c2CCC4)CCC3)nn1-c1ccccc1 (single isomer, unassigned) [Example 575]	0.2 to 1 µM
CN(C)C(c1ccc(S(N)(=O)=NC(=O)Nc2c3c(cc4c2CCC4)CCC3)cc1)C1CC1 (single isomer, unassigned) [Example 661]	0.2 to 1 µM

Recorded IC50 of CC(C)c1cc2c(cc1NC(=O)N=S(N)(=O)c1cnc(C(C)(C)O)s1)CCC2 (single isomer, unassigned) [Example 527] , please.
1 to 5 µM

Could you share which IC50 value was measured for CC(O)(CO)c1ncc(S(N)(=O)=NC(=O)Nc2c3c(cc4c2CCC4)CCC3)s1 (single isomer, unassigned) [Example 628] ?
0.2 to 1 µM

Query: IC50; subject: C=CCc1c2c(c(NC(=O)N=S(N)(=O)c3cc(C(C)(C)O)n(-c4ccccc4)n3)c3c1CCC3)CCC2 (single isomer, unassigned) [Example 566]
1 to 5 µM

# IC50 lookup, item CN(C)C(c1ccc(S(N)(=O)=NC(=O)Nc2c3c(cc4c2CCC4)CCC3)cc1)C1CC1 (single isomer, unassigned) [Example 660]
0.2 to 1 µM

May I ask what IC50 has been recorded for CC(C)(O)c1cc(F)c(S(N)(=O)=NC(=O)Nc2c3c(cc4c2CCC4=O)CCC3)s1 (single isomer, unassigned) [Example 600] ?
0.2 to 1 µM

// IC50 lookup, key: CC(C)(O)c1cc(C#N)cc(S(N)(=O)=NC(=O)Nc2c3c(c(C#N)c4c2CCC4)CCC3)c1 (single isomer, unassigned) [Example 579]
5 to 30 µM

Would you kindly share the measured IC50 for CC(C)(O)c1nc(S(N)(=O)=NC(=O)Nc2c3c(cc4c2CCC4)CCC3)cs1 (single isomer, unassigned) [Example 557] ?
0.04 to 0.2 µM

Which measured IC50 value corresponds to CO[C@H]1COc2c(S(N)(=O)=NC(=O)Nc3c4c(cc5c3CCC5)CCC4)cnn2C1 (single isomer, unassigned) [Example 695] ?
0.04 to 0.2 µM

* * *

pIC50 reference
test system: IL-1β production in hTHP-1 cells; experiment: hTHP-1 assay containing 10% fetal bovine serum; assay type: cell-based, human; conditions: read-out: hTHP-1 IC50 in 10% FBS; hTHP-1 assay containing 10% fetal bovine serum, Table B4
pIC50: −log10 of the molar value.

Worked set:
Compound	pIC50
CC(C)(O)c1csc(S(N)(=O)=NC(=O)Nc2c3c(cc4c2CCC4)CCC3)c1F (single isomer, unassigned) [Example 880]	6.70 to 7.40
CC(C)(O)c1csc(S(N)(=O)=NC(=O)Nc2c3c(cc4c2CCC4)CCC3)c1F (single isomer, unassigned) [Example 881]	4.52 to 5.30
CC(C)(O)c1csc(S(N)(=O)=NC(=O)Nc2c3c(cc4c2CC4)CCC3)c1F (single isomer, unassigned) [Example 882]	7.40 to 8.10

Let's switch to this compound now.
Any idea what its pIC50 is? The compound is CC(C)(O)c1csc(S(N)(=O)=NC(=O)Nc2c3c(cc4c2CC4)CCC3)c1F (single isomer, unassigned) [Example 883]
5.30 to 6.00

* * *

Recorded pIC50 by entry
test system: IL-1β production in PMA-differentiated THP-1 cells; experiment: IL-1β production in PMA-differentiated THP-1 cells stimulated with gramicidin (hTHP-1 assay, 2% fetal bovine serum; Procedures 1-3); format: cell-based, human; conditions: hTHP-1 assay containing 2% fetal bovine serum, Table B2, class symbols; read-out: IC50
pIC50: −log10 of the molar value.

Molecule	Reported
CC(C)(O)c1cc(S(N)(=O)=NC(=O)Nc2c3c(cc4c2CCC4)CCC3)sc1-c1ccccc1 (single isomer, unassigned) [Example 552]	6.70 to 7.40
NS(=O)(=NC(=O)Nc1c2c(cc3c1CC3)CCC2)c1cnn2c1OCCC2 (single isomer, unassigned) [Example 546]	6.00 to 6.70

For the molecule shown here, CC(C)(O)c1cc(S(N)(=O)=NC(=O)Nc2c3c(cc4c2CCC4)CCC3)sc1-c1ccccc1 (stereo not drawn) [Example 477] , give the reported pIC50.
6.00 to 6.70

Consider the molecule CC(C)n1nc(S(N)(=O)=NC(=O)Nc2c3c(c(C#N)c4c2CCC4)CCC3)cc1CO (single isomer, unassigned) [Example 548] and give its measured pIC50.
6.70 to 7.40

Can you share its pIC50? I mean this molecule: CN1CCc2sc(S(N)(=O)=NC(=O)Nc3c4c(cc5c3CCC5)CCC4)cc2C1 (single isomer, unassigned) [Example 688]
5.30 to 6.00

pIC50 lookup needed for CC(O)(CO)c1ncc(S(N)(=O)=NC(=O)Nc2c3c(c(C#N)c4c2CCC4)CCC3)s1 (single isomer, unassigned) [Example 637] , thanks.
6.00 to 6.70

* * *

system: IL-1β production in PMA-differentiated THP-1 cells; assay: IL-1β production in PMA-differentiated THP-1 cells stimulated with gramicidin (hTHP-1 assay, 2% fetal bovine serum; Procedures 1-3); assay type: cell-based, human; settings: hTHP-1 assay containing 2% fetal bovine serum, Table B2, class symbols; read-out: IC50
Metric Name: IC50

Below, each entry is followed by its recorded IC50 result.
Compound	Assay Target	IC50
CC(O)(CO)c1cc(F)c(S(N)(=O)=NC(=O)Nc2c3c(c(C#N)c4c2CCC4)CCC3)s1 (single isomer, unassigned) [Example 629]	IL-1β production in PMA-differentiated THP-1 cells	40 to 200 nM
NS(=O)(=NC(=O)Nc1c2c(cc3c1CCC3)CCC2)c1cnn2c1OC[C@H](O)C2 (single isomer, unassigned) [Example 515]	IL-1β production in PMA-differentiated THP-1 cells	40 to 200 nM
CC(C)(O)c1cnc(S(N)(=O)=NC(=O)Nc2c3c(cc4c2CCC4=O)CCC3)s1 (stereo not shown) [Example 680]	IL-1β production in PMA-differentiated THP-1 cells	8 to 40 nM

Any idea what IC50 was measured for COCc1nc(C(C)(C)O)sc1S(N)(=O)=NC(=O)Nc1c2c(c(C#N)c3c1CCC3)CCC2 (single isomer, unassigned) [Example 532] ?
1000 to 5000 nM

Would you kindly share the measured IC50 for NS(=O)(=NC(=O)Nc1c2c(cc3c1CCC3)CCC2)c1ccc(C2CCNC2)cc1F (single isomer, unassigned) [Example 625] ?
200 to 1000 nM

Looking for the measured IC50 of CC(C)(O)c1csc(S(N)(=O)=NC(=O)Nc2c3c(c(C#N)c4c2CCC4)CCC3)n1 (single isomer, unassigned) [Example 540] , can you help?
1000 to 5000 nM

* * *

Parameter IC50: see the listing below.
system: IL-1β production in PMA-differentiated THP-1 cells; experiment: IL-1β production in PMA-differentiated THP-1 cells stimulated with gramicidin (hTHP-1 assay, 2% fetal bovine serum; Procedures 1-3); assay type: cell-based, human; details: hTHP-1 assay containing 2% fetal bovine serum, Table B2, class symbols; read-out: IC50

Dear colleague, I am looking for the recorded IC50 of the following compound: CN1CCc2sc(S(N)(=O)=NC(=O)Nc3c4c(cc5c3CCC5)CCC4)cc2C1 (single isomer, unassigned) [Example 687]
40 to 200 nM

* * *

tested on: IL-1β production in PMA-differentiated THP-1 cells; assay: IL-1β production in PMA-differentiated THP-1 cells stimulated with gramicidin (hTHP-1 assay, 2% fetal bovine serum; Procedures 1-3); type: cell-based, human; settings: hTHP-1 assay containing 2% fetal bovine serum, Table B2, class symbols; read-out: IC50
Metric Name: IC50

Examples from the recorded data:
Compound	Reported
CC(O)(CO)c1cc(F)c(S(N)(=O)=NC(=O)Nc2c3c(c(C#N)c4c2CCC4)CCC3)s1 (stereo not shown) [Example 631]	1000 to 5000 nM
CC(O)(CO)c1cc(F)c(S(N)(=O)=NC(=O)Nc2c3c(c(C#N)c4c2CCC4)CCC3)s1 (single isomer, unassigned) [Example 630]	8 to 40 nM
NS(=O)(=NC(=O)Nc1c2c(cc3c1CCC3)CCC2)c1cnn2c1OCCC2 (single isomer, unassigned) [Example 568]	5000 to 30000 nM

Field: IC50 (IL-1β production in PMA-differentiated THP-1 cells). Entry: NS(=O)(=NC(=O)Nc1c2c(cc3c1CC3)CCC2)c1cnn2c1OCCC2 (single isomer, unassigned) [Example 547]
1000 to 5000 nM
